system: A549-GM130-SQSTM1; assay: phenotypically active (imaging signature differs from DMSO and reproducible) at any of 0.3-9 uM (binary (1 = active, 0 = inactive)); higher = active; details: treatment time: 24 h
Where a name gives a salt, the structure may show the parent alone.
property name: phenotypically active

input: What value of measured phenotypically active is listed for N=C(N)NC(=O)Cc1c(Cl)cccc1Cl [guanfacine] ?
output: 0 (inactive)

input: What value of measured phenotypically active is listed for O=C(O)C(CO)c1ccccc1 (stereo unspecified) [Tropic acid] ?
output: 0 (inactive)

input: What value of measured phenotypically active is listed for COc1ccc(-c2cc(=O)c3c(O)cc(O)cc3o2)cc1O [Diosmetin] ?
output: 1 (active)

input: What value of measured phenotypically active is listed for CN(C)c1ccc(C(=O)NCCCCCCC(=O)NO)cc1 ?
output: 1 (active)

input: What value of measured phenotypically active is listed for CC(C)(C)NC[C@H](O)c1ccc(O)c(CO)c1 [levalbuterol] ?
output: 0 (inactive)

input: What value of measured phenotypically active is listed for OC(CCN1CCCCC1)(c1ccccc1)C1CC2C=CC1C2 (stereo unspecified) [biperiden] ?
output: 0 (inactive)

input: What value of measured phenotypically active is listed for O=C(O)Cc1cccc(OCCCN(Cc2cccc(C(F)(F)F)c2Cl)CC(c2ccccc2)c2ccccc2)c1 [GW 3965 hydrochloride] ?
output: 0 (inactive)

input: What value of measured phenotypically active is listed for CSc1ccc(C(=O)c2[nH]c(=O)[nH]c2C)cc1 [Enoximone] ?
output: 0 (inactive)

input: What value of measured phenotypically active is listed for c1ccc(-c2n[nH]cc2-c2ccnc3ccccc23)nc1 ?
output: 0 (inactive)

input: What value of measured phenotypically active is listed for Nc1ncnc2[nH]nc(Nc3ccc(F)cc3)c12 ?
output: 0 (inactive)

input: What value of measured phenotypically active is listed for N=C(N)NN=Cc1c(Cl)cccc1Cl [guanabenz] ?
output: 0 (inactive)

====

system: WPMY1-TP53BP1-CLTA; experiment: phenotypically active (imaging signature differs from DMSO and reproducible) at any of 0.3-9 uM (binary (1 = active, 0 = inactive)); higher = active; settings: treatment time: 24 h
Where a name gives a salt, the structure may show the parent alone.
property name: phenotypically active
Keep it simple and answer with nothing but the number.

input: What value of measured phenotypically active is listed for CC(C)(N)c1cc(C(=O)N[C@@H]2CCc3ccc(OC4=C5CCC(=O)N=C5NC=C4)cc3C2)cc(C(F)(F)F)c1 [ML 786 dihydrochloride] ?
output: 1

input: What value of measured phenotypically active is listed for CC(C)[C@@H](C)/C=C/[C@@H](C)[C@H]1CC[C@H]2C3=CC=C4C[C@@H](O)CC[C@]4(C)[C@H]3CC[C@]12C [Ergosterine] ?
output: 0

input: What value of measured phenotypically active is listed for Cc1c(CN2CCN(C(=O)[C@H](C)O)CC2)sc2c(N3CCOCC3)nc(-c3cnc(N)nc3)nc12 ?
output: 1

input: What value of measured phenotypically active is listed for CCc1cc2c(=O)c(-c3nc4ccccc4s3)coc2c(CN2CCCCC2)c1O ?
output: 0

====

tested on: WPMY1-ACTB-RAB5A; assay: phenotypically active (imaging signature differs from DMSO and reproducible) at any of 0.3-9 uM (binary (1 = active, 0 = inactive)); higher = active; details: treatment time: 24 h
Structures can show the parent of a compound that is named as a salt.
Return exactly one item of yes = active, no = inactive

input: Test call, this molecule: CC(C)CCN1c2nc(Nc3cc(F)c(O)c(F)c3)ncc2N(C)C(=O)C1C (stereo unspecified)
output: yes

input: Test call, this molecule: COc1ccc(-c2ccc3ncc4c(c3c2)n(-c2ccc(N3CCNCC3)c(C(F)(F)F)c2)c(=O)n4C)cn1
output: yes

input: Test call, this molecule: CC(C[N+](C)(C)C)OC(N)=O (stereo unspecified)
output: no

input: Test call, this molecule: C[C@@H](Nc1ncnc2[nH]c(-c3ccc(O)cc3)cc12)c1ccccc1 [PKI 166 hydrochloride]
output: yes

input: Test call, this molecule: Cc1ccc(Nc2nnc(-c3ccc([N+](=O)[O-])cc3)o2)cc1Cl
output: no

input: Test call, this molecule: C[C@H]1[C@H](C)CC[C@]2(C(=O)O[C@@H]3O[C@H](CO[C@@H]4O[C@H](CO)[C@@H](O[C@@H]5O[C@@H](C)[C@H](O)[C@@H](O)[C@H]5O)[C@H](O)[C@H]4O)[C@@H](O)[C@H](O)[C@H]3O)CC[C@]3(C)C(=CC[C@@H]4[C@@]5(C)C[C@@H](O)[C@H](O)[C@@](C)(CO)[C@@H]5CC[C@]43C)[C@H]12 [Asiaticoside]
output: no

input: Test call, this molecule: CCCCc1oc2ccccc2c1C(=O)c1cc(I)c(OCCN(CC)CC)c(I)c1
output: yes

input: Test call, this molecule: N#Cc1ccc2ncnc(NCCc3ccccc3)c2c1
output: yes

input: Test call, this molecule: C[C@H]1[C@H](C)CC[C@]2(C(=O)O)CC[C@]3(C)C(=CC[C@@H]4[C@@]5(C)CC[C@H](O)C(C)(C)[C@@H]5CC[C@]43C)[C@H]12
output: no

input: Test call, this molecule: O=C1CC(c2ccc(O)cc2)Oc2cc(O)cc(O)c21 (stereo unspecified)
output: no

input: Test call, this molecule: CO/N=C/C1=CCCN(C)C1 [Milameline hydrochloride]
output: no

input: Test call, this molecule: Cc1[nH]c2ccccc2c1CCNC(=O)c1ccccc1F
output: no

input: Test call, this molecule: Nc1ccn([C@@H]2O[C@H](CO)[C@@H](O)[C@@H]2O)c(=O)n1
output: yes

input: Test call, this molecule: COc1ccccc1C(=O)Nc1cc2c(cc1N1CCCC1)n(C)c(=O)n2C
output: yes

input: Test call, this molecule: COc1ccc2c(Oc3ccc(NC(=O)c4c(C)n(CC(C)(C)O)n(-c5ccccc5)c4=O)nc3)ccnc2c1
output: no

input: Test call, this molecule: CO[C@@H]1[C@H](N(C)C(=O)c2ccccc2)C[C@H]2O[C@]1(C)n1c3ccccc3c3c4c(c5c6ccccc6n2c5c31)C(=O)NC4
output: yes

====

system: HepG2-CANX-COX4; assay: phenotypically active (imaging signature differs from DMSO and reproducible) at any of 0.3-9 uM (binary (1 = active, 0 = inactive)); higher = active; settings: treatment time: 24 h
Structures can show the parent of a compound that is named as a salt.
property name: phenotypically active
Keep it simple and answer with nothing but the number.

input: What value of measured phenotypically active is listed for COCCc1ccc(OCC(O)CNC(C)C)cc1 (stereo not given) ?
output: 0

input: What value of measured phenotypically active is listed for Cc1nnc(-c2ccc3occ(-c4ccc(S(C)=O)cc4)c3c2)o1 (stereo not given) ?
output: 1

input: What value of measured phenotypically active is listed for COC(=O)C1=C(C)NC(C)=C(C(=O)OC(C)C)C1c1cccc2nonc12 (stereo not given) ?
output: 0

input: What value of measured phenotypically active is listed for CCCCN1CCCCC1C(=O)Nc1c(C)cccc1C (stereo not given) ?
output: 0

input: What value of measured phenotypically active is listed for CCOP(=O)(OCC)C(=Cc1cc(C(C)(C)C)c(O)c(C(C)(C)C)c1)P(=O)(OCC)OCC ?
output: 0

input: What value of measured phenotypically active is listed for O=C1c2ccccc2-c2nc3nonc3nc21 ?
output: 1

input: What value of measured phenotypically active is listed for CCCCCCCCCCCCc1ccc(S(=O)(=O)Nc2nncs2)cc1 ?
output: 0

input: What value of measured phenotypically active is listed for Nc1ncnc2[nH]nc(Nc3ccc(F)cc3)c12 ?
output: 0

input: What value of measured phenotypically active is listed for CC[N+](C)(C)c1cccc(O)c1 ?
output: 0

input: What value of measured phenotypically active is listed for COc1ccc(-c2noc(CSc3nnc(C)n3-c3ccc(OC)cc3)n2)cc1 ?
output: 0

input: What value of measured phenotypically active is listed for CCSc1ccc2c(c1)N(CCCN1CCN(C)CC1)c1ccccc1S2 ?
output: 0

input: What value of measured phenotypically active is listed for NC(=O)Nc1cc(-c2cccc(F)c2)sc1C(=O)N[C@H]1CCCNC1 [AZD 7762 hydrochloride] ?
output: 1

input: What value of measured phenotypically active is listed for NC(=O)c1ncn([C@@H]2O[C@H](CO)[C@@H](O)[C@H]2O)c1N ?
output: 0

input: What value of measured phenotypically active is listed for Cc1ccc(NC(=O)c2cccc(N(C)C)c2)cc1NC(=O)c1ccc(O)cc1 ?
output: 0

input: What value of measured phenotypically active is listed for C[C@]1(O)C[C@@H](c2nc(-c3ccc4ccc(-c5ccccc5)nc4c3)c3c(N)nccn32)C1 ?
output: 1

input: What value of measured phenotypically active is listed for CCCCCCCN(CC)CCCC(O)c1ccc(NS(C)(=O)=O)cc1 (stereo not given) [ibutilide] ?
output: 0

input: What value of measured phenotypically active is listed for COc1ccc2c(c1)N(C(C)=O)[C@H]1[C@@H]3CO[C@H](C)[C@@H]4CN5CC[C@]21[C@@H]5C[C@H]34 ?
output: 0

input: What value of measured phenotypically active is listed for CC(C)(C)c1cc(C(=O)/C=C/c2ccc(C(=O)O)cc2)cc(C(C)(C)C)c1 ?
output: 1

input: What value of measured phenotypically active is listed for CON(C)C(=O)N1N=C(c2cc(F)ccc2F)S[C@@]1(CCCN)c1ccccc1 [ARRY 520 trifluoroacetate] ?
output: 1

input: What value of measured phenotypically active is listed for c1ccc(-c2cnn3cc(-c4ccc(OCCN5CCOCC5)cc4)cnc23)cc1 ?
output: 0
